# experimental target: calcium channels
# protocol text: [^3 H]-nitrendipine binding to rat brain membrane
Hi there, I'd appreciate the recorded IC50 for every entry that follows.
Write it as a number; the unit nM goes unstated.

The recorded IC50 for entry COC(=O)C1=C(C)NC(C)=C(C(=O)OCCCCCCNCC(O)COc2ccccc2)C1c1cccc([N+](=O)[O-])c1.Cl (centres unmarked) [Example 12, hydrochloride] equals 12

Form: molecule = COC(=O)C1=C(C)NC(C)=C(C(=O)OCCN(C)Cc2ccccc2)C1c1cccc([N+](=O)[O-])c1 (centres unmarked) [Nicardipine, reference compound] ; IC50 = 1.6

###

# experimental target: Beta-adrenoceptor (Rattus norvegicus, UniProt P18090)
# Sequence (P18090 whole entry): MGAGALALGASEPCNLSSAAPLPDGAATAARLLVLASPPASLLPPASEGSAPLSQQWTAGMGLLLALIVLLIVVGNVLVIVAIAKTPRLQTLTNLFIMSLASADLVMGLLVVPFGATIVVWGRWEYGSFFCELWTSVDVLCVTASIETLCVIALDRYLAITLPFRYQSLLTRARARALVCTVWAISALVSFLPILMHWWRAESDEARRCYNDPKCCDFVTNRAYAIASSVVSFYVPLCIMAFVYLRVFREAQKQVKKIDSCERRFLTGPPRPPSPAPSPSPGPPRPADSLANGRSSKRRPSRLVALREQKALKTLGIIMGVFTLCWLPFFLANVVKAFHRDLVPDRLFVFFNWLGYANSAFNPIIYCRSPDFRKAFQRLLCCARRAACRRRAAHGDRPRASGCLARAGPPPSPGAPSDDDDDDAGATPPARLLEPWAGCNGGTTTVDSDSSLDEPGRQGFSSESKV
# protocol text: Beta-adrenoceptor blocking effect in reserpinized rats (isoproterenol chronotropy)
# Format: in vivo, male Wistar rats
# Design: The rats were anesthetized with pentobarbital sodium; from tissue; host or cells: heart in the living anesthetized male Wistar rat (reserpine-pretreated, vagotomized)
# measurement setup: isoproterenol 0.1 μg/kg iv, cumulative iv doses, read-out: Beta-Blocking ED50 (50% blockade of positive chronotropic response to isoproterenol)
Structures can show the parent of a compound that is named as a salt.
# if measured ED50 < 0.7 mg/kg: 1.0  # else: 0.0

Q: Is ED50 strictly under 0.7 mg/kg for the entry COC(=O)C1=C(C)NC(C)=C(C(=O)OCCCCCCNCC(O)COc2ccccc2)C1c1ccccc1[N+](=O)[O-] (stereo not shown) [Example 41] ?
Ans: 1.0

Q: Record COC(=O)C1=C(C)NC(C)=C(C(=O)OCCCCCCNCC(O)COc2ccccc2)C1c1cccc(Cl)c1.Cl (stereo not shown) [Example 43] : is its ED50 strictly below 0.7 mg/kg?
Ans: 0.0

Q: Is ED50 strictly under 0.7 mg/kg for the entry COC(=O)C1=C(C)NC(C)=C(C(=O)OCCCCCCNCC(O)COc2ccccc2C#N)C1c1cccc([N+](=O)[O-])c1.Cl (stereo not shown) [Example 30] ?
Ans: 0.0

Q: Hello, I'm reviewing records and need to know if ED50 of COCCOC(=O)C1=C(C)NC(C)=C(C(=O)OCCCCCCNCC(O)COc2ccccc2)C1c1cccc([N+](=O)[O-])c1 (stereo not shown) [Example 22, hydrochloride] is below 0.7 mg/kg. Could you check?
Ans: 0.0

Q: Field: below-cutoff. Rule: recorded ED50 strictly less than 0.7 mg/kg. Subject: COC(=O)C1=C(C)NC(C)=C(C(=O)OCCCCCCNCC(O)COc2ccccc2)C1c1ccccc1OC.Cl (stereo not shown) [Example 47]
Ans: 1.0

Q: hey, is ED50 for COC(=O)C1=C(C)NC(C)=C(C(=O)OCCCCCCNCC(O)COc2ccccc2)C1c1cccc(OC)c1 (stereo not shown) [Example 46, hydrochloride] lower than 0.7 mg/kg or not?
Ans: 1.0

###

# Tested on: dog coronary artery
# protocol text: Effect on 3,4-diaminopyridine (3,4-DAP)-induced rythmic contraction
# Assay type: cell-based
# measurement setup: Canis lupus familiaris, read-out: IC50, 3,4-DAP contraction
measured attribute: IC50 (nM)
Just the number please, in nM, no unit attached.

IC50 in this record for COc1ccc(CCN(C)CCCC(C#N)(c2ccc(OC)c(OC)c2)C(C)C)cc1OC (stereo not shown) [Verapamil, reference compound] : 126

###

# experimental target: Beta-adrenoceptor (Rattus norvegicus)
# protocol text: Intrinsic sympathomimetic activity (ISA) in reserpinized rats
# Format: in vivo, male Wistar rats
# Parameters: The rats were anesthetized with pentobarbital sodium; from tissue; host or cells: heart in the living anesthetized male Wistar rat (reserpine-pretreated, vagotomized)
# measurement setup: reserpine-pretreated rats, iv
# Procedure: The rats were pretreated with reserpine (8 mg/kg ip), 18 hr before experiments. […] The heart rate was measured with a cardiotachometer triggered by the QRS of the ECG (lead II) and recorded on a polygraph. After the Control response to isoproterenol at a dose of 0.1 μg/kg iv was obtained, the test compound was injected iv in increasing doses at 20 min intervals. In this series of experiments, intrinsic sympathomimetic activity (ISA) was also evaluated.
Structures can show the parent of a compound that is named as a salt.
measured attribute: ISA (increase in HR)

Form field ISA (increase in HR), entry COC(=O)C1=C(C)NC(C)=C(C(=O)OCCCCCCNCC(O)COc2ccccc2Cl)C1c1cccc([N+](=O)[O-])c1 (stereo not drawn) [Example 32, hydrochloride] : -

GET /value?item= CCOC(=O)C1=C(C)NC(C)=C(C(=O)OCCCCCCNCC(O)COc2ccccc2)C1c1cccc([N+](=O)[O-])c1 (stereo not drawn) [Example 18] &field=ISA (increase in HR) returns -
